The reported measurements were obtained from patent US20130344026A1.

# System: PANC-1 cells
# Test Description: cell viability assay in PANC-1 cells (compound alone, + 100 ng/ml TNFa, + 300 ng/ml TRAIL)
# Format: cell-based
# Experimental Context: with 100 ng/ml TNFa; Tables 6-10; read-out: IC50 (μM) in cell viability assay in PANC-1 cells: Compound + 100 ng/ml TNFa
Measured Property: IC50

1. CN[C@@H](C)C(=O)N[C@@H](C)C(=O)N[C@@H](CCNC(=O)c1cccc(C(=O)N[C@H]2C[C@@H](C(=O)N[C@@H]3CCCc4ccccc43)N(C(=O)[C@@H](NC(=O)[C@H](C)NC)C(C)(C)C)C2)c1)C(=O)N[C@H](C)c1ccccc1    0.054 µM
2. CN[C@@H](C)C(=O)Nc1nc(-c2ccccc2)c(C(=O)NCCc2cn([C@H]3C[C@@H](C(=O)N[C@@H]4CCCc5ccccc54)N(C(=O)[C@@H](NC(=O)[C@H](C)NC)C(C)(C)C)C3)nn2)s1    0.577 µM
3. CN[C@@H](C)C(=O)N[C@H](C(=O)N1CCC[C@H]1C(=O)N[C@H](C)c1ccccc1)[C@H](C)n1cc(CCCc2cn([C@@H](C)[C@H](NC(=O)[C@H](C)NC)C(=O)N3CCC[C@H]3C(=O)N[C@H](C)c3ccccc3)nn2)nn1    0.057 µM
4. CN[C@@H](C)C(=O)N[C@H](C(=O)N1C[C@@H](NC(=O)CC[C@@H](NC(=O)[C@H](NC(=O)[C@@H](C)NC)C(C)C)C(=O)N[C@@H](C)C(C)C)C[C@H]1C(=O)N[C@H](C)c1ccccc1)C(C)C    > 1 µM

###

# System: PANC-1 cells
# Test Description: cell viability assay in PANC-1 cells (compound alone, + 100 ng/ml TNFa, + 300 ng/ml TRAIL)
# Format: cell-based
# Experimental Context: PANC-1 cells, + 300 ng/ml TRAIL; read-out: IC50 (uM) in cell viability assay in PANC-1 cells, Cmpnd + 300 ng/ml TRAIL
Measured Property: IC50 (µM)

1. CN[C@@H](C)C(=O)N[C@H](C(=O)N1C[C@@H](NC(=O)c2ccc(C#Cc3ccc(C(=O)N[C@H]4C[C@@H](C(=O)N[C@@H]5CCCc6ccccc65)N(C(=O)[C@@H](NC(=O)[C@H](C)NC)C(C)(C)C)C4)cc3)cc2)C[C@H]1C(=O)N[C@@H]1CCCc2ccccc21)C(C)(C)C [Compound P3-100]    0.055
2. CN[C@@H](C)C(=O)N[C@H](C(=O)N1C[C@@H](NC(=O)C2CCCC(C(=O)N[C@H]3C[C@@H](C(=O)N[C@H](C)c4ccccc4)N(C(=O)[C@@H](NC(=O)[C@H](C)NC)C(C)(C)C)C3)C2)C[C@H]1C(=O)N[C@H](C)c1ccccc1)C(C)(C)C (stereo partly shown) [Compound P3-102]    0.023
3. CN[C@@H](CO)C(=O)N[C@H](C(=O)N1C[C@@H](NC(=O)c2cc(C(=O)N[C@H]3C[C@@H](C(=O)N[C@H](C)c4ccccc4)N(C(=O)[C@@H](NC(=O)[C@H](CO)NC)C(C)(C)C)C3)[nH]n2)C[C@H]1C(=O)N[C@H](C)c1ccccc1)C(C)(C)C [Compound P3-91]    0.225
4. CN[C@@H](C)C(=O)N[C@H](C(=O)N1C[C@@H](NC(=O)C2CCCC(C(=O)N[C@H]3C[C@@H](C(=O)N[C@H](C)c4ccccc4)N(C(=O)[C@@H](NC(=O)[C@H](C)NC)C(C)(C)C)C3)C2)C[C@H]1C(=O)N[C@H](C)c1ccccc1)C(C)(C)C (stereo partly shown) [Compound P3-97]    0.065

###

# System: PANC-1 cells
# Test Description: cell viability assay in PANC-1 cells (compound alone, + 100 ng/ml TNFa, + 300 ng/ml TRAIL)
# Assay type: cell-based
# Experimental Context: with 100 ng/ml TNFa; Tables 6-10; read-out: IC50 (μM) in cell viability assay in PANC-1 cells: Compound + 100 ng/ml TNFa
Measured Property: log10 IC50 (log10 of the value in µM)

1. CN[C@@H](C)C(=O)NC(C(=O)N1C[C@@H](NC(=O)c2cccc(C(=O)N[C@H]3CC(C(=O)N[C@@H]4CC5CCC4(C)C5(C)C)N(C(=O)[C@@H](NC(=O)[C@H](C)NC)C(C)(C)C)C3)c2)CC1C(=O)N[C@@H]1CC2CCC1(C)C2(C)C)C(C)(C)C (stereo partly drawn)    -0.26
2. CN[C@@H](C)C(=O)N[C@H](C(=O)N1C[C@@H](NC(=O)c2cccc(C(=O)N[C@H]3C[C@@H](C(=O)NC4CCSc5ccccc54)N(C(=O)[C@@H](NC(=O)[C@H](C)NC)C(C)(C)C)C3)c2)C[C@H]1C(=O)NC1CCSc2ccccc21)C(C)(C)C (single isomer, unassigned) [Compound 68]    -1.54
3. CN[C@@H](C)C(=O)N[C@H](C(=O)N1CCC[C@H]1CN1CCC[C@H]1C(c1ccccc1)c1ccccc1)[C@@H](C)OCCCCCCO[C@H](C)[C@H](NC(=O)[C@H](C)NC)C(=O)N1CCC[C@H]1CN1CCC[C@H]1C(c1ccccc1)c1ccccc1    -0.31
4. CN[C@@H](C)C(=O)N[C@H](C(=O)N1CCC[C@H]1C(=O)N[C@H]1c2ccccc2C[C@@H]1OC(=O)CCCC(=O)O[C@H]1Cc2ccccc2[C@@H]1NC(=O)[C@@H]1CCCN1C(=O)[C@@H](NC(=O)[C@H](C)NC)C(C)(C)C)C(C)(C)C    -3.15
5. CN[C@@H](C)C(=O)N[C@H](C(=O)N1C[C@@H](NC(=O)c2cccc(C(=O)N[C@H]3C[C@@H](C(=O)N[C@@H]4CCCc5cc(OC)ccc54)N(C(=O)[C@@H](NC(=O)[C@H](C)NC)C(C)(C)C)C3)c2)C[C@H]1C(=O)N[C@@H]1CCCc2cc(OC)ccc21)C(C)(C)C    -2.10
6. CN[C@@H](C)C(=O)N[C@H](C(=O)N1C[C@@H](NC(=O)c2cccc(C(=O)N[C@H]3C[C@@H](C(=O)NC4CCCc5ccc([N+](=O)[O-])cc54)N(C(=O)[C@@H](NC(=O)[C@H](C)NC)C(C)(C)C)C3)c2)C[C@H]1C(=O)NC1CCCc2ccc([N+](=O)[O-])cc21)C(C)(C)C (single isomer, unassigned)    -0.74
7. CN[C@@H](C)C(=O)NC(C(=O)N[C@@H](CCNC(=O)CCc1cn([C@H]2C[C@@H](C(=O)N[C@@H]3CCCc4ccccc43)N(C(=O)[C@@H](NC(=O)[C@H](C)NC)C(C)(C)C)C2)nn1)C(=O)N[C@H](C)C(C)C)C(C)(C)C (stereo partly drawn)    -0.96
8. CN[C@@H](C)C(=O)N[C@H](C(=O)N[C@@H](CCNC(=O)c1cc(N)cc(C(=O)N[C@H]2C[C@@H](C(=O)N[C@@H]3CCCc4ccccc43)N(C(=O)[C@@H](NC(=O)[C@H](C)NC)C(C)(C)C)C2)c1)C(=O)N[C@H](C)C(C)C)C(C)C    -0.91
9. CN[C@@H](C)C(=O)N[C@H](C(=O)N1C[C@@H](NC(=O)c2cccc(C(=O)N[C@H]3C[C@@H](C(=O)N[C@@H]4CCCc5cc(O)ccc54)N(C(=O)[C@@H](NC(=O)[C@H](C)NC)C(C)(C)C)C3)c2)C[C@H]1C(=O)N[C@@H]1CCCc2cc(O)ccc21)C(C)(C)C (single isomer, unassigned)    -0.49

###

# Tested on: PANC-1 cells
# Test Description: cell viability assay in PANC-1 cells (compound alone, + 100 ng/ml TNFa, + 300 ng/ml TRAIL)
# Assay type: cell-based
# Experimental Context: with 100 ng/ml TNFa; Tables 6-10; read-out: IC50 (μM) in cell viability assay in PANC-1 cells: Compound + 100 ng/ml TNFa
# reported IC50; entries follow
Measured Property: IC50 (µM)

1. CN[C@@H](C)C(=O)N[C@@H](CCCCNC(=O)c1cccc(C(=O)NCCCC[C@H](NC(=O)[C@H](C)NC)C(=O)N2CCC[C@H]2Cn2nnnc2Sc2ccccc2)c1)C(=O)N1CCC[C@H]1Cn1nnnc1Sc1ccccc1    0.263
2. CN[C@@H](C)C(=O)N[C@H](C(=O)N1C[C@@H](NC(=O)c2cccc(C(=O)N[C@H]3C[C@@H](C(=O)N[C@@H]4CCCc5ccc(Br)cc54)N(C(=O)[C@@H](NC(=O)[C@H](C)NC)C(C)(C)C)C3)c2)C[C@H]1C(=O)N[C@@H]1CCCc2ccc(Br)cc21)C(C)(C)C (single isomer, unassigned) [Compound 63]    0.143
3. CN[C@@H](C)C(=O)N[C@@H](CC#CC#CC[C@H](NC(=O)[C@H](C)NC)C(=O)N1CCC[C@H]1CNC(=O)c1ccccn1)C(=O)N1CCC[C@H]1CNC(=O)c1ccccn1    0.209
4. CN[C@@H](C)C(=O)N[C@H](C(=O)N1C[C@@H](NC(=O)c2cccc(C(=O)N[C@H]3C[C@@H](C(=O)NC4CCCc5cccc(F)c54)N(C(=O)[C@@H](NC(=O)[C@H](C)NC)C(C)(C)C)C3)c2)C[C@H]1C(=O)NC1CCCc2cccc(F)c21)C(C)(C)C (single isomer, unassigned) [Compound 70]    0.0011
5. CN[C@@H](C)C(=O)N[C@H](C(=O)N1C[C@@H](NC(=O)c2cccc(C(=O)N[C@H]3C[C@@H](C(=O)NC4CCCc5cc(Br)ccc54)N(C(=O)[C@@H](NC(=O)[C@H](C)NC)C(C)(C)C)C3)c2)C[C@H]1C(=O)NC1CCCc2cc(Br)ccc21)C(C)(C)C (single isomer, unassigned)    0.018
6. CN[C@@H](C)C(=O)N[C@H](C(=O)N[C@@H](CCNC(=O)c1ccc(CCc2ccc(C(=O)N[C@@H]3C[C@@H](C(=O)N[C@@H]4CCCc5ccccc54)N(C(=O)[C@@H](NC(=O)[C@H](C)NC)C(C)(C)C)C3)cc2)cc1)C(=O)NC(C)C(C)C)C(C)C (stereo partly drawn)    0.027
7. CCC1(NC(=O)[C@@H]2C[C@H](NC(=O)c3cccc(C(=O)N[C@H]4C[C@@H](C(=O)NC5(CC)CCCc6ccccc65)N(C(=O)[C@@H](NC(=O)[C@H](C)NC)C(C)(C)C)C4)c3)CN2C(=O)[C@@H](NC(=O)[C@H](C)NC)C(C)(C)C)CCCc2ccccc21 (stereo partly drawn) [Compound 51]    0.104
8. CN[C@@H](C)C(=O)N[C@H](C(=O)N1C[C@@H](NC(=O)CCc2ccc(C(=O)N[C@H]3C[C@@H](C(=O)N[C@@H]4CCCc5ccccc54)N(C(=O)[C@@H](NC(=O)[C@H](C)NC)C(C)(C)C)C3)cc2)C[C@H]1C(=O)N[C@@H]1CCCc2ccccc21)C(C)(C)C    0.013
9. CN[C@@H](C)C(=O)N[C@H](C(=O)N1CCC[C@H]1Cn1nnnc1Sc1ccccc1)[C@@H](C)OCC#Cc1cccc(C#CCO[C@@H](C)[C@@H](NC(=O)[C@@H](C)NC)C(=O)N2CCC[C@@H]2Cn2nnnc2Sc2ccccc2)c1    0.0046
10. CN[C@@H](C)C(=O)N[C@@H](CCCCCC[C@H](NC(=O)[C@H](C)NC)C(=O)N1C[C@@H](F)C[C@H]1C(=O)N[C@@H]1CCCc2ccccc21)C(=O)N1C[C@H](F)C[C@H]1C(=O)N[C@@H]1CCCc2ccccc21    0.006
11. CC[C@@H](NC(=O)[C@@H]1C[C@H](NC(=O)c2cccc(C(=O)N[C@H]3C[C@@H](C(=O)N[C@H](CC)c4ccccc4)N(C(=O)[C@@H](NC(=O)[C@H](C)NC)C(C)(C)C)C3)c2)CN1C(=O)[C@@H](NC(=O)[C@H](C)NC)C(C)(C)C)c1ccccc1 [Compound 2]    0.062
12. CN[C@@H](C)C(=O)N[C@@H](CCCCCC[C@H](NC(=O)[C@H](C)NC)C(=O)N1CC(F)(F)C[C@H]1C(=O)N[C@@H]1CCCc2ccccc21)C(=O)N1CC(F)(F)C[C@H]1C(=O)N[C@@H]1CCCc2ccccc21    0.004
